FYI, the data here is from paper PMC3644560.

Assay read-out pIC50; system under study: E. coli IspH (Escherichia coli).
Sequence (P62623 whole entry): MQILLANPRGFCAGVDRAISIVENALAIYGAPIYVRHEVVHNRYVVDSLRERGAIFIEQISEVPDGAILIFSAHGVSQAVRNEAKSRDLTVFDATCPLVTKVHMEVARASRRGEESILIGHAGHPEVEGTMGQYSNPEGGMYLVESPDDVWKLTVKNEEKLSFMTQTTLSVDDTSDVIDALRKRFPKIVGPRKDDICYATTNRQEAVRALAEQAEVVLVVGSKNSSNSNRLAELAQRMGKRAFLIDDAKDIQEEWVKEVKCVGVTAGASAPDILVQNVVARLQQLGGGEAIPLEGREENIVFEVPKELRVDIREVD
Please keep in mind that pIC50 is minus log10 of the molar concentration; only the number is needed.

C/C(=C\COP(=O)(O)OP(=O)(O)O)CS.N.N [TMBPP] : 6.68

Consider the compound shown here: C/C(=C\COP(=O)(O)OP(=O)(O)O)CN.N.N [AMBPP] What is its recorded pIC50? 6.82
